The reported measurements were obtained from ChEMBL document CHEMBL1138042.

system-tested: 5-hydroxytryptamine receptor 2A (Sus scrofa, UniProt P50129)
Sequence (P50129 whole entry): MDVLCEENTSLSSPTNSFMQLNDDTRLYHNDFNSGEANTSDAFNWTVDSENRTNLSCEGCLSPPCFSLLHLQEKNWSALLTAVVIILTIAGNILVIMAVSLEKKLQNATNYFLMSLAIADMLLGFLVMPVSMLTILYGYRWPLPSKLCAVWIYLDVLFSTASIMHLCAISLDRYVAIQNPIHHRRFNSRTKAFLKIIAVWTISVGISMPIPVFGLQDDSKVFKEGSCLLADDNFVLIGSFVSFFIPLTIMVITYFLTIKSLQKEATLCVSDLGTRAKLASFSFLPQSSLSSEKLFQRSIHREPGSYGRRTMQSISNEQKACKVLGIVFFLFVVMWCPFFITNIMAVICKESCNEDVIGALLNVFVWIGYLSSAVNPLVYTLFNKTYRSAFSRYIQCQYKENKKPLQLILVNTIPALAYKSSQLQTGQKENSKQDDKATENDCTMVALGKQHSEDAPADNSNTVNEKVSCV
pKi: −log10 of the molar value.
observed-property: pKi

Look over these answered cases.
Fc1ccc(N2CCN(Cc3cn4ccccc4n3)CC2)cc1: 6.07
Clc1ccc(N2CCN(Cc3cn4ccccc4n3)CC2)cc1Cl: 5.92

P. Clc1ccc(N2CCN(Cc3cn4ccccc4n3)CC2)cc1
Q. COc1ccccc1N1CCN(Cc2cn3nc(Cl)ccc3n2)CC1
Between P and Q , which one shows the smaller pKi number? Write down the label of the entry you select. Q
(Q: 5.47, P: 5.92)

====

system-tested: D(4) dopamine receptor (Homo sapiens, UniProt P21917)
Sequence (P21917 whole entry): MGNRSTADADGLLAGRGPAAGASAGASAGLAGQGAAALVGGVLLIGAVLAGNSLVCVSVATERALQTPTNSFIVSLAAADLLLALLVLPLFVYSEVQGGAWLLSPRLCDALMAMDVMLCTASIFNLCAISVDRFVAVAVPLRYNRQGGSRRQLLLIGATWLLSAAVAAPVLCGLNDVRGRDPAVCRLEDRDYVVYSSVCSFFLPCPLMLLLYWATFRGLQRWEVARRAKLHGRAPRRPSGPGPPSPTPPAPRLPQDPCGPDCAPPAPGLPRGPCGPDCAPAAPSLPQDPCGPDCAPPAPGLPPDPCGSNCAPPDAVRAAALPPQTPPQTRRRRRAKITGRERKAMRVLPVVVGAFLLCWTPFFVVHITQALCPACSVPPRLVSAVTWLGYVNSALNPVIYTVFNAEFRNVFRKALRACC
pKi: −log10 of the molar value.
observed-property: pKi

Look over these answered cases.
Fc1ccc(N2CCN(Cc3cn4cccnc4n3)CC2)cc1: 5.55
COc1ccccc1N1CCN(Cc2cn3cc(C)cc(C#N)c3n2)CC1: 8.89
COc1ccccc1N1CCN(Cc2cn3cc(I)ccc3n2)CC1: 9.48
Clc1ccc(N2CCN(Cc3cn4ccccc4n3)CC2)cc1Cl: 8.85

1. Clc1ccc2nc(CN3CCN(c4ccc(Cl)c(Cl)c4)CC3)cn2n1
2. Clc1ccc(N2CCN(Cc3cn4ccccc4n3)CC2)cc1
Select the item with the higher value of pKi from the options 1 and 2 listed. Write down the label of the entry you select. 1

====

system-tested: D(2) dopamine receptor (Homo sapiens)
Sequence (P14416 whole entry): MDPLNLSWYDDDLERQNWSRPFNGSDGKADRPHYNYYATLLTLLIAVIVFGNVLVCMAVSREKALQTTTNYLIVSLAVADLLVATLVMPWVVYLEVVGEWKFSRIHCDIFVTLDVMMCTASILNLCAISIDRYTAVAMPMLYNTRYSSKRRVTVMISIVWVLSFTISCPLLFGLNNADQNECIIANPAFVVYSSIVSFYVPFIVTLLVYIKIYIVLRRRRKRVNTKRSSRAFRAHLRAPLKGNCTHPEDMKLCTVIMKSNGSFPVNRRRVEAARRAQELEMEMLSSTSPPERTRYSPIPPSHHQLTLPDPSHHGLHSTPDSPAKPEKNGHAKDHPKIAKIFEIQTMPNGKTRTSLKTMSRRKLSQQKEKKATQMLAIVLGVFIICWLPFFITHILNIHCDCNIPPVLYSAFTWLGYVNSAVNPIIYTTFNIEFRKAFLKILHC
experiment-summary: Displacement of [3H]spiperone from human dopamine receptor D2(short) in CHO cell membrane
Type: cell membranes
pKi: −log10 of the molar value.
observed-property: pKi

Look over these answered cases.
Clc1ccc2nc(CN3CCN(c4ccc(Cl)c(Cl)c4)CC3)cn2n1: 6.17
Clc1ccc(N2CCN(Cc3cn4nc(Cl)ccc4n3)CC2)cc1: 5.09
COc1ccccc1N1CCN(Cc2cn3cc(C)cc(N4CCOCC4)c3n2)CC1: 7.00
Clc1ccc(N2CCN(Cc3cn4cc(Br)ccc4n3)CC2)cc1Cl: 5.43
COc1ccccc1N1CCN(Cc2cn3cc(C)cc(-c4ccccc4)c3n2)CC1: 7.55

A. CN1CCN(c2ccc3nc(CN4CCN(c5ccc(Cl)c(Cl)c5)CC4)cn3n2)CC1
B. COc1ccccc1N1CCN(Cc2cn3c(-n4cccn4)cccc3n2)CC1
Select the item with the higher value of pKi from the options A and B listed. Write down the label of the entry you select. B

====

system-tested: D(4) dopamine receptor (Homo sapiens) (UniProt P21917)
experiment-summary: Intrinsic activity at human D4.2 receptor assessed as [3H]thymidine incorporation in CHO 10001 cells relative to quinpirole by mitogenesis assay
Format: functional, cell-based
observed-property: Activity (%)

I. Clc1ccc(N2CCN(Cc3cn4ccccc4n3)CC2)cc1
II. COc1ccccc1N1CCN(Cc2cn3cc(C)cc(I)c3n2)CC1
Between I and II , which one shows the smaller Activity number? Write down the label of the entry you select. II
(II: 0%, I: 6%)

====

system-tested: D(2) dopamine receptor (Homo sapiens)
experiment-summary: Displacement of [3H]spiperone from human dopamine receptor D2(short) in CHO cell membrane
Format: cell membranes
observed-property: Ki (nM)

I. Clc1ccc(N2CCN(Cc3cn4ccccc4n3)CC2)cc1
II. COc1ccccc1N1CCN(Cc2cn3cc(Br)ccc3n2)CC1
III. COc1ccccc1N1CCN(Cc2cn3nc(Cl)ccc3n2)CC1
IV. Clc1ccc(N2CCN(Cc3cn4nc(N5CCCCC5)ccc4n3)CC2)cc1Cl
V. Clc1ccc(N2CCN(Cc3cn4ccccc4n3)CC2)cc1Cl
List the molecules shown above again, sorted by falling Ki values. Answer by listing the labels in the requested order. I, V, IV, II, III
(I: 16000 nM, V: 2700 nM, IV: 710 nM, II: 140 nM, III: 79 nM)

====

system-tested: D(4) dopamine receptor (Homo sapiens) (UniProt P21917)
experiment-summary: Intrinsic activity at human D4.2 receptor assessed as [3H]thymidine incorporation in CHO 10001 cells relative to quinpirole by mitogenesis assay
Assay type: functional, cell-based
observed-property: Activity (%)

Look over these answered cases.
Clc1ccc(N2CCN(Cc3cn4nc(Cl)ccc4n3)CC2)cc1: 0
Clc1ccc2nc(CN3CCN(c4ccc(Cl)c(Cl)c4)CC3)cn2n1: 0
COc1ccccc1N1CCN(Cc2cn3cc(I)ccc3n2)CC1: 10

I. COc1ccccc1N1CCN(Cc2cn3cc(Br)ccc3n2)CC1
II. COc1ccccc1N1CCN(Cc2cn3ccccc3n2)CC1
Select the item with the higher value of Activity from the options I and II listed. Write down the label of the entry you select. II

====

pKi: −log10 of the molar value.
Let's go through some pKi measurements on D(3) dopamine receptor (Homo sapiens, UniProt P35462) together.
Sequence (P35462 whole entry): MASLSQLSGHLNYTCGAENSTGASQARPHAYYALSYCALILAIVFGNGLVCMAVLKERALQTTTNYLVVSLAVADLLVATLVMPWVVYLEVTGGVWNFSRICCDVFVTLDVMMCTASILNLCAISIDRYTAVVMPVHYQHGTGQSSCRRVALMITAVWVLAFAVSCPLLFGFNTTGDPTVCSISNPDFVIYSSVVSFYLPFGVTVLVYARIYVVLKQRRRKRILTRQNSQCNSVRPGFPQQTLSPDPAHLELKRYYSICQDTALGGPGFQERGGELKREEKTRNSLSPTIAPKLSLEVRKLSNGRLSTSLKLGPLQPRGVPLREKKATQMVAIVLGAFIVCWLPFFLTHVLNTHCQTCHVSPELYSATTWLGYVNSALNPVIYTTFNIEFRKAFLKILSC
observed-property: pKi

A. COc1ccccc1N1CCN(Cc2cn3cc(C)cc(-c4ccccc4)c3n2)CC1
B. Clc1ccc(N2CCN(Cc3cn4ccccc4n3)CC2)cc1Cl
Select the item with the higher value of pKi from the options A and B listed. Write down the label of the entry you select. A
(A: 6.41, B: 5.77)

P. COc1ccccc1N1CCN(Cc2cn3cc(C)cc(N4CCOCC4)c3n2)CC1
Q. COc1ccccc1N1CCN(Cc2cn3c(-n4cccn4)cccc3n2)CC1
Select the item with the higher value of pKi from the options P and Q listed. Write down the label of the entry you select. Q
(Q: 6.00, P: 5.68)

====

system-tested: D(4) dopamine receptor (Homo sapiens)
Sequence (P21917 whole entry): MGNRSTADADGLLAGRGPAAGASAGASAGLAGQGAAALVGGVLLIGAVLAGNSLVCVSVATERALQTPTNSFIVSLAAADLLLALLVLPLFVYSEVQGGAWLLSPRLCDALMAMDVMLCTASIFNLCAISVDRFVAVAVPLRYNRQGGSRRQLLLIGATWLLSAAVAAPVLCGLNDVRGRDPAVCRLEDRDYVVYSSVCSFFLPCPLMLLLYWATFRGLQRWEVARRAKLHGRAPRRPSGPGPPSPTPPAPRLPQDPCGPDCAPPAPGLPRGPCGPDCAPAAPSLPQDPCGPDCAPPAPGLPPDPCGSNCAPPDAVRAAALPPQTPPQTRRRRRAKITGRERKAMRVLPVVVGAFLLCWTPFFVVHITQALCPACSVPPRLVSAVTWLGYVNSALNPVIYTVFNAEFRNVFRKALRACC
pKi: −log10 of the molar value.
observed-property: pKi

COc1ccccc1N1CCN(Cc2cn3cc(C)cc(-n4cccn4)c3n2)CC1: 8.80

I. Clc1ccc(N2CCN(Cc3cn4nc(N5CCCCC5)ccc4n3)CC2)cc1Cl
II. Clc1ccc(N2CCN(Cc3cn4cc(Br)ccc4n3)CC2)cc1Cl
Between I and II , which one shows the smaller pKi number? Write down the label of the entry you select. I

====

system-tested: D(1A) dopamine receptor (Sus scrofa, UniProt P50130)
Sequence (P50130 whole entry): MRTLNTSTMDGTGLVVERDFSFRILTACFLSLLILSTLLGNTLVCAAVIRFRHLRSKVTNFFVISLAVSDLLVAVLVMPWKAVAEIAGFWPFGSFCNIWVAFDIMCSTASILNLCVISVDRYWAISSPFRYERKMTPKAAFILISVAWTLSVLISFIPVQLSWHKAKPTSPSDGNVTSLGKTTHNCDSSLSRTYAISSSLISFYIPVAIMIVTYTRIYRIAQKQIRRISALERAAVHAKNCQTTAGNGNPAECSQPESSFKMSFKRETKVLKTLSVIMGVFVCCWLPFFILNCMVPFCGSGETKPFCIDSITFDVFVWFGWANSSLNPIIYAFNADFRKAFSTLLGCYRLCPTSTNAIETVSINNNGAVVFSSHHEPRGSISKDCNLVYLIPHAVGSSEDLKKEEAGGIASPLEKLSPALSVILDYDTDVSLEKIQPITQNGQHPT
experiment-summary: Displacement of [3H][…] from dopamine receptor D1 in porcine striatal membrane
Format: cell membranes, Striatum
observed-property: Ki (µM)

Fc1ccc(N2CCN(Cc3cn4ccccc4n3)CC2)cc1: 8.4
Clc1ccc(N2CCN(Cc3cn4ccccc4n3)CC2)cc1Cl: 2.3
Fc1ccc(N2CCN(Cc3cn4ccncc4n3)CC2)cc1: 15

a. Clc1ccc(N2CCN(Cc3cn4cc(Br)ccc4n3)CC2)cc1Cl
b. COc1ccccc1N1CCN(Cc2cn3cc(C)cc(I)c3n2)CC1
Select the item with the higher value of Ki from the options a and b listed. Write down the label of the entry you select. b
(b: 5.9 µM, a: 2.5 µM)

====

system-tested: D(2) dopamine receptor (Homo sapiens)
experiment-summary: Displacement of [3H]spiperone from human dopamine receptor D2(short) in CHO cell membrane
Assay type: cell membranes
observed-property: pKi
Bear in mind: pKi is minus log10 of a mol/L concentration; give just that figure.

Look over these answered cases.
Fc1ccc(N2CCN(Cc3cn4ccccc4n3)CC2)cc1: 4.72
Fc1ccc(N2CCN(Cc3cn4nc(Cl)ccc4n3)CC2)cc1: 4.92

Field: next compound
Looking up `COc1ccccc1N1CCN(Cc2cn3cc(C)cc(Br)c3n2)CC1` , I found its pKi recorded as 6.82
